System: Saccharomyces cerevisiae
RUN_DESCRIPTION: protein stability index of tFT-peptide fusion (C-terminal peptide) (PSI (0-1 scale)); higher = more stable (slower turnover)
CONDITION: genetic background: wild type; temperature: 30 C
OBSERVABLE: protein stability index
// response body must contain only the number

INPUT: Reported protein stability index for STTKQQSQEAVA [YHL026C C-terminal 12 aa] : what is it?
OUTPUT: 0.689

INPUT: Reported protein stability index for VSIYKPYTEESE [WTM1 C-terminal 12 aa] : what is it?
OUTPUT: 0.663

INPUT: Reported protein stability index for RLAKKVARRNAD [RPS24A C-terminal 12 aa] : what is it?
OUTPUT: 0.683

INPUT: Reported protein stability index for HQFCEQKYVETI [RRT16 C-terminal 12 aa] : what is it?
OUTPUT: 0.664

INPUT: Reported protein stability index for EFKCMSVITAQQ [SEH1 C-terminal 12 aa] : what is it?
OUTPUT: 0.687

INPUT: Reported protein stability index for SVSVQVKWLYSA [YER107W-A C-terminal 12 aa] : what is it?
OUTPUT: 0.159

INPUT: Reported protein stability index for PKINPLHARKPT [RAD52 C-terminal 12 aa] : what is it?
OUTPUT: 0.704

INPUT: Reported protein stability index for SHEQKFENVQKE [STF2 C-terminal 12 aa] : what is it?
OUTPUT: 0.705

INPUT: Reported protein stability index for TVNYLHRLLETD [ISN1 C-terminal 12 aa] : what is it?
OUTPUT: 0.721

INPUT: Reported protein stability index for QAADKRIDRNNP [SRD1 C-terminal 12 aa] : what is it?
OUTPUT: 0.702

INPUT: Reported protein stability index for NVLGEPFDRYLD [UTP10 C-terminal 12 aa] : what is it?
OUTPUT: 0.716

INPUT: Reported protein stability index for KAGREELERVNV [QCR8 C-terminal 12 aa] : what is it?
OUTPUT: 0.685

INPUT: Reported protein stability index for FFFPLFLFLYHL [YHR180W-A C-terminal 12 aa] : what is it?
OUTPUT: 0.306

INPUT: Reported protein stability index for LSDLRAWTLKVA [YDR491C C-terminal 12 aa] : what is it?
OUTPUT: 0.329

INPUT: Reported protein stability index for KYKFYDDENLTE [SOL1 C-terminal 12 aa] : what is it?
OUTPUT: 0.733

INPUT: Reported protein stability index for RHQGQNIYRSGV [MCM5 C-terminal 12 aa] : what is it?
OUTPUT: 0.674

INPUT: Reported protein stability index for HISLKCIVYKEY [YER135C C-terminal 12 aa] : what is it?
OUTPUT: 0.665

INPUT: Reported protein stability index for IGKQKCFIIEMR [MSY1 C-terminal 12 aa] : what is it?
OUTPUT: 0.679

INPUT: Reported protein stability index for DIYNQLHMFGEK [IGD1 C-terminal 12 aa] : what is it?
OUTPUT: 0.688

INPUT: Reported protein stability index for LKDNLAKPKTRR [VBA2 C-terminal 12 aa] : what is it?
OUTPUT: 0.708

INPUT: Reported protein stability index for VAFFKAVGATIM [YOR146W C-terminal 12 aa] : what is it?
OUTPUT: 0.627

INPUT: Reported protein stability index for SKFGSIFKKVFG [YGR237C C-terminal 12 aa] : what is it?
OUTPUT: 0.775

INPUT: Reported protein stability index for KSVRIAIDKPIR [ALD5 C-terminal 12 aa] : what is it?
OUTPUT: 0.666

INPUT: Reported protein stability index for AFRSLQKSKKKK [PKH3 C-terminal 12 aa] : what is it?
OUTPUT: 0.793

INPUT: Reported protein stability index for RLGDVLHVCCPS [YHL049C C-terminal 12 aa] : what is it?
OUTPUT: 0.7
